Source of measurements: patent US7674819B2

biological target: hAR (Homo sapiens, UniProt P10275); assay: Competitive binding of 3H-DHT to baculovirus/Sf9 generated hAR extracts; conditions: concentration at which one half of maximum binding of 1 nM 3H-DHT to hAR is inhibited; one hour at 4° C.; mean of multiple tests
Sequence (P10275 whole entry): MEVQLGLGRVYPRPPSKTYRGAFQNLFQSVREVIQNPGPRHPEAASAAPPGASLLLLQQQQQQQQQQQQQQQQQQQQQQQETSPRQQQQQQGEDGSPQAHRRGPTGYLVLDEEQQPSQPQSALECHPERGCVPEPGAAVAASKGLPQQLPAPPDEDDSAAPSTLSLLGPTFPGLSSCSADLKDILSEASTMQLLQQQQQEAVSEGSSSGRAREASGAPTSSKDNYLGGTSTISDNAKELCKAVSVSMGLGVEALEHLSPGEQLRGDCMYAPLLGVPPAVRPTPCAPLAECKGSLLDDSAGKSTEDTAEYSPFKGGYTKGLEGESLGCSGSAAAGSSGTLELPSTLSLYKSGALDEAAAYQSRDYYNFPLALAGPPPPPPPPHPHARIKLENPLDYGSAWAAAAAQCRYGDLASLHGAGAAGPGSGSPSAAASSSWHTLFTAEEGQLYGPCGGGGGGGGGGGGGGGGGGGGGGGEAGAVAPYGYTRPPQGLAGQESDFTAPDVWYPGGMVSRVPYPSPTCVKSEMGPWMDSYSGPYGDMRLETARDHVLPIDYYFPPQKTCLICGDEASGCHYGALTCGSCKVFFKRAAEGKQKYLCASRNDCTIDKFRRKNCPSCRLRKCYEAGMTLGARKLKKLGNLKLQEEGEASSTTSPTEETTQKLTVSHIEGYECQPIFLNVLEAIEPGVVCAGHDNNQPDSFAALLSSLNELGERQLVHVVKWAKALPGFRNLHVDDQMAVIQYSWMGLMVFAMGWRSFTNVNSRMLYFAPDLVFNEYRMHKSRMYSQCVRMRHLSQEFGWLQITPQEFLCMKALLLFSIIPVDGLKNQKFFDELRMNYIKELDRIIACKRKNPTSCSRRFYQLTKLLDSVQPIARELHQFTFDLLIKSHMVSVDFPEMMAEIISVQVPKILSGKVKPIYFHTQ

COMPOUND: CC1(C)CN(S(C)(=O)=O)C(=O)C1Oc1ccc(C#N)c(C(F)(F)F)c1 (single isomer, unassigned; (+))
IC50 / nM: 12

----------
Each record here notes measured pIC50.
target: hAR (Homo sapiens); assay: Competitive binding of 3H-DHT to baculovirus/Sf9 generated hAR extracts; conditions: concentration at which one half of maximum binding of 1 nM 3H-DHT to hAR is inhibited; one hour at 4° C.; mean of multiple tests; read-out: IC50
pIC50: −log10 of the molar value.
MEASURED_QUANTITY: pIC50

COMPOUND: CC1(C)CN(CC2CCC2)C(=O)C1Oc1ccc(C#N)c(C(F)(F)F)c1 (centres unmarked) [Example 64]
MEASUREMENT_TARGET: hAR (Homo sapiens)
MEASURED_QUANTITY: pIC50
OBSERVED_RESULT: 6.60
//
COMPOUND: COC(=O)c1ccoc1CN1CC(C)(C)C(Oc2ccc(C#N)c(C(F)(F)F)c2)C1=O (centres unmarked) [Example 58]
MEASUREMENT_TARGET: hAR (Homo sapiens)
MEASURED_QUANTITY: pIC50
OBSERVED_RESULT: 6.50
//
COMPOUND: Cc1ccccc1-c1nnc(CN2CC(C)(C)C(Oc3ccc(C#N)c(C(F)(F)F)c3)C2=O)o1 (centres unmarked) [Example 111]
MEASUREMENT_TARGET: hAR (Homo sapiens)
MEASURED_QUANTITY: pIC50
OBSERVED_RESULT: 6.62
//
COMPOUND: Cc1ccc(-c2nnc(CN3CC(C)(C)C(Oc4ccc(C#N)c(C(F)(F)F)c4)C3=O)o2)s1 (centres unmarked) [Example 117]
MEASUREMENT_TARGET: hAR (Homo sapiens)
MEASURED_QUANTITY: pIC50
OBSERVED_RESULT: 6.59
//
COMPOUND: CC1(C)CN(S(=O)(=O)c2ccccc2C#N)C(=O)C1Oc1ccc(C#N)c(C(F)(F)F)c1 (centres unmarked) [Example 91]
MEASUREMENT_TARGET: hAR (Homo sapiens)
MEASURED_QUANTITY: pIC50
OBSERVED_RESULT: 6.29
